Assay: Cmax in CD-1 mouse at 10 mg/kg, po by LC-MS/MS analysis
Type: ADME, organism-based
Parameters: dose 10 mg/kg, route oral
Conditions: in vivo
property.measured: Cmax

Consider the compound shown here: O=C(O)CCCSc1nnc(-c2ccc(C3CC3)cc2Cl)o1 What is its recorded Cmax?
1430 ng/mL

====

Assay: Oral bioavailability in CD-1 mouse at 20 mg/kg by LC-MS/MS analysis
Assay type: ADME, organism-based
Conditions: in vivo
property.measured: bioavailability (%)
State just the number; it will be interpreted in %.

Consider the compound shown here: O=C(O)CCCSc1nnc(-c2ccc(Cl)cc2Cl)o1 What is its recorded bioavailability?
52

Reference for the values: ChEMBL document CHEMBL4385608
